# MEASURED_ON: T1, P5A-bA
# T1 chain: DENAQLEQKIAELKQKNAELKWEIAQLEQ
# TEST_DETAILS: two-hybrid library CCNG1;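 note: natural log of median RNA to DNA barcode read ratio; higher means stronger binding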
Binary call on interaction score: Fulfilled from -0.6 upward, Not fulfilled beneath that.

>>> label("DKNAQLKQENAELEQKIAELKWKIAQLKQ [P10A-bA]")
"Fulfilled"
>>> label("DKNAQLKQKIAELKQKIAELKWENAQLEQ [P12A-bA]")
"Not fulfilled"
>>> label("DEIAQLEQEIAELEQKNAELKWKNAQLKQ [P3A-bA]")
"Not fulfilled"
>>> label("DEIAQLEQENAELEQENAELEWEIAQLEQ [P1A-bA]")
"Not fulfilled"
>>> label("DENAQLEQKIAELKQKNAELKWEIAQLEQ [P5A-bA]")
"Not fulfilled"
>>> label("DKIAQLKQKIAELKQENAELEWENAQLEQ [P4A-bA]")
"Not fulfilled"
>>> label("DEIAQLKQEIAELEQKNAELEWKNAQLKQ [4H568-bA]")
"Not fulfilled"
>>> label("DENAQLEQEIAELEQEIAELEWKNAQLKQ [P11A-bA]")
"Fulfilled"
>>> label("DKIAQLKQKNAELKQKNAELKWKIAQLKQ [P2A-bA]")
"Not fulfilled"
